Hi there, I'd appreciate the recorded binding (% of control) for every entry that follows.
Test system: anti-desmoglein-3 scFv antibody binding to human DSG3
Test: inhibitors of anti-DSG3 scFv binding to DSG3, pilot screen, biochemical, validation compound set, bead-based, flow cytometry (AID 588368);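 note: signal is the median channel fluorescence of bead-bound GFP antibody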
Conditions: Protein G beads, DSG3-Fc, scFv-GFP binding, at 10 µM, stronger effect = lower value
Output spec: scalar in %, unitless text.

binding (% of control) reading for "c1cc2c(cc1C1CCCCC1)c1c3n2CCN=C3CCC1" : 114

binding (% of control) reading for CC(C)CC(=O)N(Cc1ccc(F)cc1)C1CCS(=O)(=O)C1 (configuration not stated) : 102

binding (% of control) reading for "CCCCNc1cc(C(=O)O)cc(S(N)(=O)=O)c1Oc1ccccc1" : 99.5

binding (% of control) reading for "C=C(C)c1nc2cc(OC)c(OC)cc2c(=O)o1" : 105

binding (% of control) reading for "Nc1nnc(-c2cccc(Cl)c2Cl)c(N)n1" : 94.9

binding (% of control) reading for "O=C(/C=C/c1ccc(Cl)cc1)NCCc1ccccc1" : 98.2

binding (% of control) reading for "COc1cccc(OC)c1C(=O)NCCSC1CCCCC1" : 104

binding (% of control) reading for "Oc1c(Cl)cc(Cl)c(Cl)c1Cc1c(O)c(Cl)cc(Cl)c1Cl" : 105

binding (% of control) reading for "CCOc1ccc(C(=O)/C=C/c2cc(OC)c(OC)c(OC)c2)cc1" : 104

binding (% of control) reading for "Cn1c2ccc(CC(=O)O)cc2c2cc(CC(=O)O)ccc21" : 101

binding (% of control) reading for "COc1ccc2cc(-c3nc4ccccc4n3C)c(=O)oc2c1" : 95.5

binding (% of control) reading for O=C(CC(C(=O)O)c1c[nH]c2ccccc12)c1ccccc1 (configuration not stated) : 102

----------
Experiment: LAP4-GFP expression modulators in yeast, confirmation, cell-based, cherry picks, flow cytometry, mother/daughter gates (AID 2271);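 note: ratio of sample to DMSO plate mean so 100% equals DMSO level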
Conditions: S. cerevisiae LAP4-GFP strain, 3 h, measured here: mother cell gate response, at 10 µM, stronger effect = higher value, 100 means same as DMSO control
assay.readout: GFP response relative to DMSO (%)
Output spec: scalar in %, unitless text.

GFP response relative to DMSO reading for "COc1ccc(NC(=O)COC(=O)c2ccco2)c([N+](=O)[O-])c1" : 102

GFP response relative to DMSO reading for "C=CCOc1ccc(C(=O)/C=C2/C(=O)Nc3ccccc32)cc1" : 117

GFP response relative to DMSO reading for "NC(=O)c1ccccc1-c1nc(-c2ccccc2)no1" : 102

GFP response relative to DMSO reading for Cc1nc(SC2CC(=O)N(c3ccccc3)C2=O)nc2c1CCCC2 (stereo unspecified) : 97.2

GFP response relative to DMSO reading for "CCOC(=O)Cc1csc(NC(=O)c2sc3nc4c(C)cc(C)cc4cc3c2N)n1" : 92.1

GFP response relative to DMSO reading for "Cc1c([N+](=O)[O-])cnc(Sc2ccccc2)c1[N+](=O)[O-]" : 127

----------
Assay: LAP4-GFP expression modulators in yeast, confirmation, cell-based, cherry picks, flow cytometry, mother/daughter gates (AID 2271);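 note: ratio of sample to DMSO plate mean so 100% equals DMSO level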
Conditions: S. cerevisiae LAP4-GFP strain, 3 h, measured here: mother cell gate response, at 10 µM, stronger effect = higher value, 100 means same as DMSO control
Hi there, I'd appreciate the recorded GFP response relative to DMSO for every entry that follows.
Output spec: scalar in %, unitless text.

GFP response relative to DMSO reading for "COc1cc(/C=C2/C(=O)ON=C2c2ccccc2)ccc1O" : 102

GFP response relative to DMSO reading for "CCc1ccc2c(c1)/C(=C/C(=O)c1cccs1)C(=O)N2" : 171

GFP response relative to DMSO reading for "Cc1cc(C)c2c(c1)/C(=C/C(=O)c1ccc(Br)s1)C(=O)N2" : 102

GFP response relative to DMSO reading for "Cc1cccc(/C=C/c2onc(C)c2[N+](=O)[O-])n1" : 147

GFP response relative to DMSO reading for "O=S(=O)(Nc1ccc(Br)cc1)c1cccc2nonc12" : 95.6

GFP response relative to DMSO reading for "CCOC(=O)/C=C1\SCC(=O)N1Cc1nnc(-c2ccccc2Br)o1" : 90.8

GFP response relative to DMSO reading for "COc1ccccc1/C=C/C=N/NC(=O)c1cccs1" : 102

GFP response relative to DMSO reading for "O=c1c2c(-c3ccc(Cl)cc3)csc2ncn1/N=C/c1cccc([N+](=O)[O-])c1O" : 99.5

GFP response relative to DMSO reading for CC(C)(C)C(=O)NCC12C=CC(O1)C1C(=O)N(c3ccccc3)C(=O)C12 (configuration not stated) : 111

GFP response relative to DMSO reading for "Cc1nnc(OCc2nc3ccccc3n2C)c2ccccc12" : 100

GFP response relative to DMSO reading for "O=C1c2ccsc2SCCN1Cc1cccc(F)c1" : 104

GFP response relative to DMSO reading for "COc1ccc(-c2cc(=O)n(-c3nc4ccccc4[nH]3)[nH]2)cc1" : 113

GFP response relative to DMSO reading for O=C1CC(Sc2ncccn2)C(=O)N1c1ccccc1C(F)(F)F (configuration not stated) : 99.3

GFP response relative to DMSO reading for "COc1ccc(CCNC2=C(Cl)C(=O)N(CCc3ccccc3)C2=O)cc1OC" : 103

GFP response relative to DMSO reading for "CC(=O)c1ccc2c3c(cccc13)C(=O)N(c1c(C)nn(C)c1C)C2=O" : 97.5

GFP response relative to DMSO reading for "O=C(NC(=S)NNC(=O)c1ccc(Cl)cc1Cl)c1cccnc1" : 98.2

GFP response relative to DMSO reading for "CC(C)c1nnc(NC(=O)c2nc(S(=O)(=O)Cc3ccc(F)cc3)ncc2Cl)s1" : 99.5

GFP response relative to DMSO reading for CCOC(=O)C1=C(c2ccccc2)NC(=S)NC1c1cc([N+](=O)[O-])ccc1OC (configuration not stated) : 97.2

GFP response relative to DMSO reading for "Cc1ccc(/C=N/NC(=O)c2ccccn2)s1" : 99.4

GFP response relative to DMSO reading for CS(=O)(=O)Nc1cccc(C2=NN(S(C)(=O)=O)C(c3ccc4c(c3)OCO4)C2)c1 (configuration not stated) : 98.3

GFP response relative to DMSO reading for "CCOC(=O)c1cc(-c2ccc(/C=C3/C(=O)NC(=O)C(C#N)=C3C)o2)ccc1Cl" : 231

GFP response relative to DMSO reading for CCCc1[nH]nc2c1C(c1cc(OC)cc(OC)c1)C(C#N)=C(N)O2 (configuration not stated) : 106

----------
Experiment: RPL19A-GFP modulators, yeast TOR pathway, confirmation, cell-based, S. cerevisiae, flow cytometry, cherry picks, mother/daughter gates (AID 2270)
Details: S. cerevisiae RPL19A-GFP strain, 3 h, measured here: daughter cell gate, at 10 µM, stronger effect = lower value, 100 = same GFP as DMSO wells
assay.readout: GFP response vs DMSO (%)
Output spec: scalar in %, unitless text.

GFP response vs DMSO reading for "C#CCSc1nncn1C(=O)/C=C/c1ccccc1" : 98.6

GFP response vs DMSO reading for O=C1CC(Sc2nnnn2C2CCCCC2)C(=O)N1c1ccccc1 (configuration not stated) : 95.5

GFP response vs DMSO reading for "O=C(OCc1cc(Cl)ccc1OC(F)F)c1ccc([N+](=O)[O-])o1" : 99.8

GFP response vs DMSO reading for "Cc1c(C(=O)Nc2ccccc2)cnn1-c1ccccc1" : 97.4

GFP response vs DMSO reading for COc1ccc(/C=C/C(=O)C2C(=O)C=C(C)OC2=O)cc1O (configuration not stated) : 102

GFP response vs DMSO reading for O=C(O)C1CCC(NSc2ccccc2[N+](=O)[O-])CC1 (configuration not stated) : 95.9

GFP response vs DMSO reading for "O=C(O)Cc1csc(-c2cccc(Oc3ccccc3)c2)n1" : 97.8

GFP response vs DMSO reading for "O=C1C(Cl)=C(Nc2ccccc2O)C(=O)N1CCc1ccccc1" : 97.8

GFP response vs DMSO reading for "Cc1nn2c(NCc3ccccn3)c3c(nc2c1-c1ccccc1)CCC3" : 85.7

GFP response vs DMSO reading for "O=C1c2cccc3cccc(c23)C(=O)N1c1cccnc1" : 102

GFP response vs DMSO reading for "Cc1c(/C=N/Nc2ccc(C(=O)O)cc2)c2ccccc2n1C" : 91.3

GFP response vs DMSO reading for O=C1c2ccccc2C2=Nc3ccccc3SC(c3cccc(F)c3)C12 (configuration not stated) : 98.4

GFP response vs DMSO reading for "COc1ccc(N2CCN(C(=O)c3ccc(C)cc3Cl)CC2)cc1" : 98.1

GFP response vs DMSO reading for "Cc1nn(Cc2ccc(Cl)cc2)c(=O)n1N(C)c1ncc(C(F)(F)F)cc1Cl" : 98.1

GFP response vs DMSO reading for "CCc1oc2ccccc2c1C(=O)CCN1CCCCC1" : 98.4

GFP response vs DMSO reading for "Cc1ccc(C(=O)Nc2nnc(CC(=O)N/N=C/c3ccc(O)c(O)c3)s2)cc1" : 99

GFP response vs DMSO reading for "CSC(SC)=C(C#N)C(=O)c1ccccc1" : 98.6

GFP response vs DMSO reading for COc1cc(C)c(C)cc1S(=O)(=O)N1CCCCC1c1cccnc1 (configuration not stated) : 98.8

GFP response vs DMSO reading for "COc1cc(-c2noc(-c3cccc(Cl)c3)n2)cc(OC)c1OC" : 97

GFP response vs DMSO reading for "O=[N+]([O-])c1cc(C(F)(F)F)ccc1Sc1ccc2ccccc2n1" : 97

GFP response vs DMSO reading for "O=C(OCn1ncc(Br)c(Br)c1=O)c1c(F)cccc1F" : 94

GFP response vs DMSO reading for "O=C(COC(=O)CCc1nc2ccccc2s1)Nc1nc(-c2ccccc2)cs1" : 100

GFP response vs DMSO reading for "Cc1cc(OCC(=O)Nc2ccc(S(=O)(=O)N3CCN(C)CC3)cc2)ccc1Br" : 98.7

GFP response vs DMSO reading for "COc1ccc(CCNC2=C(Cl)C(=O)N(CCc3ccc(OC)c(OC)c3)C2=O)cc1OC" : 98.5

GFP response vs DMSO reading for "COc1ccc(NC(=O)CCc2nc(-c3ccccc3F)no2)cc1" : 95.9

GFP response vs DMSO reading for "Cc1ccc(Oc2nc(-c3ccccn3)nc3ccccc23)cc1" : 94.7

GFP response vs DMSO reading for "O=C(NCc1ccccn1)c1cc(-c2ccc(Cl)cc2)oc1C(F)(F)F" : 98.4

GFP response vs DMSO reading for "Cc1cc(NCCCN2CCOCC2)n2nc(C)c(-c3ccc(F)cc3)c2n1" : 95.9

GFP response vs DMSO reading for "COc1ccccc1-c1noc(CCC(=O)Nc2cccc(C(F)(F)F)c2)n1" : 97.9

GFP response vs DMSO reading for "Cc1cc(=O)n(-c2ccc3ccccc3n2)[nH]1" : 109

GFP response vs DMSO reading for "CN1C(=O)c2cccc3c(Cl)ccc(c23)C1=O" : 95.7

GFP response vs DMSO reading for "Cc1cc(=O)[nH]c(-n2nc(C)cc2C)n1" : 99.1

GFP response vs DMSO reading for "Cc1cccc(CS(=O)(=O)c2ncc(Cl)c(C(=O)NCc3ccc4c(c3)OCO4)n2)c1" : 99

GFP response vs DMSO reading for "CCOC(=O)c1ccc2nc(Nc3nc4ccc(F)cc4s3)sc2c1" : 98.1

GFP response vs DMSO reading for "CCCc1ccc(C(=O)N2CCN(c3ccccc3OCC)CC2)cc1" : 98.8

GFP response vs DMSO reading for "O=C(/C=C/c1ccc(-c2ccccc2[N+](=O)[O-])o1)c1ccc(Br)cc1" : 97.6

GFP response vs DMSO reading for "O=C1C=CC(=O)N1c1ccc(O)cc1" : 96.9

GFP response vs DMSO reading for "O=C(CSc1ccc(-c2ccccn2)nn1)N1CCCCC1" : 100

GFP response vs DMSO reading for "CCSc1nnc(NC(=O)c2ccccn2)s1" : 100

GFP response vs DMSO reading for "CC(=O)c1cc(NC(=O)c2ccc(C)cc2)c(=O)oc1C" : 97.5

GFP response vs DMSO reading for "COc1ccc(-c2ccc(CCC(=O)O)o2)cc1" : 95.1

GFP response vs DMSO reading for COc1cc(C(O)P(=O)(OCC(C)C)OCC(C)C)cc(OC)c1OC (configuration not stated) : 99.8

GFP response vs DMSO reading for Cc1cc(=O)oc2cc(OC(C)C(=O)NC3CCCC3)ccc12 (configuration not stated) : 100

GFP response vs DMSO reading for "Cc1ccc(/C=c2\sc3nc(-c4cccs4)nn3c2=O)o1" : 95.9

GFP response vs DMSO reading for "CN(c1ccccc1)S(=O)(=O)c1ccc(C(=O)Nc2nnc(-c3ccc(F)cc3)o2)cc1" : 102

GFP response vs DMSO reading for "COc1ccc(N2C(=O)C(Cl)=C(Nc3c(C)n(C)n(-c4ccccc4)c3=O)C2=O)cc1" : 106

GFP response vs DMSO reading for "COc1cccc(NC(=O)c2ccc3c(c2)CCCC3)c1" : 98.4
